Tested on: EKVX
Assay: NCI tumour cell line growth inhibition, 48 h
Calls of active or inactive are those of the source. Rule as the data show it: active = GI50 up to about 1.1 µM and inactive = higher.
GI50 overview

Use the examples below as a reference point.
{"columns": ["compound", "GI50"],
 "data": [
  ["O=C(c1cc(O)ccc1O)c1ccccc1C(Cl)(Cl)Cl", "75.5 µM (inactive)"],
  ["Cc1ccc(NC(=O)c2cccc([N+](=O)[O-])c2O)c([N+](=O)[O-])c1", "23.2 µM (inactive)"],
  ["COc1cc2c(cc1OC)C1c3ccccc3CCN1CC2 (configuration not stated)", "> 100 µM (inactive)"],
  ["c1cc2c(cc1NC1=NCCO1)CCC2", "> 10 µM (inactive)"],
  ["N#CC(C#N)=C1NN=C(Cl)c2ccccc21", "> 100 µM (inactive)"]
]}

Query GI50 for Oc1ccc(O)c(CNc2ccc(C(O)C(F)(F)F)cc2)c1 (configuration not stated)
14.5 µM (inactive)

Query GI50 for O=c1c(Cc2cccc(Cc3c(O)oc4ccccc4c3=O)c2)c(O)oc2ccccc12
> 100 µM (inactive)

----------
System: Malme-3M
Assay: NCI tumour cell line growth inhibition, 48 h
Active and inactive are the calls of the source. Cut-off read from the data, not from the text of the source: active = GI50 up to about 1.1 µM and inactive = higher.
Your answer must be one of the following: active, inactive

See these solved cases before continuing.
{"columns": ["molecule", "assigned.class"],
 "data": [
  ["C=C(CCC/C(C)=C/C=C/[C@]1(C)CCCc2ccoc21)CC(=O)O", "inactive"],
  ["CC(C)OC(=O)c1ccc(CCC2=CC(=O)C=CC2=O)cc1", "inactive"],
  ["CC(=O)Nc1ccc(/C=C/C(=O)N2CC(CCl)c3c2cc(N)c2ccccc32)cc1 (centres undefined)", "active"],
  ["COc1ccc(C=O)cc1Oc1ccc(C[C@H]2c3c(cc(OC)c4c3Oc3cc5c(cc3O4)CCN(C)C5=O)CCN2C)cc1", "inactive"],
  ["CN(C)CCNC(=O)c1cc([N+](=O)[O-])ccn1", "inactive"]
]}

Dear colleague, could you share the recorded outcome for CC1(C)CCCC2OC2CCC(C)(C)C1=O (centres undefined) when you have a moment?
inactive

Dear colleague, could you share the recorded outcome for O=C(Nc1ccc(C2=NCCN2)cc1)c1cncc(C(=O)Nc2ccc(C3=NCCN3)cc2)c1 when you have a moment?
inactive

Dear colleague, could you share the recorded outcome for CC1(C)CNC(=O)C2(/C=N/C(C)(C)CNC(=O)C3(/C=N/1)CCCO3)CCCO2 (centres undefined) when you have a moment?
inactive

Dear colleague, could you share the recorded outcome for CC(=O)O/C(=C(/C#N)C(=O)O)C1C(C(=O)O)C(c2ccccc2[N+](=O)[O-])C=C(c2ccco2)N1c1ccncc1 (centres undefined) when you have a moment?
inactive

----------
System: 786-0
Assay: NCI tumour cell line growth inhibition, 48 h
The source made the active and inactive calls. Cut-off read from the data, not from the text of the source: active = GI50 up to about 1.1 µM and inactive = higher.
Your answer must be one of the following: active, inactive

{"columns": ["molecule", "assayed.system", "assigned.class"],
 "data": [
  ["COc1ccc(N2/C(=N/c3ccccc3)SC(=N/S(=O)(=O)c3ccccc3)/C2=N\\S(=O)(=O)c2ccccc2)cc1", "786-0", "inactive"],
  ["CCCCn1c2c(n(CCCC)c1=S)-c1c(n(CCCC)c(=S)n1CCCC)SSSS2", "786-0", "inactive"],
  ["CCc1ccccc1NC(=O)/C(CC(=O)c1c(C)[n+]([O-])c2ccccc2[n+]1[O-])=N\\NS(=O)(=O)c1ccc(C)cc1", "786-0", "inactive"],
  ["CCCCC(C(=O)CCC(=O)Nc1ccc(Cl)cc1)C(=O)C(C)C (stereo not given)", "786-0", "inactive"],
  ["CC(=O)O[C@H]1[C@@H](OC2CCCC2(c2ccccc2)c2ccccc2)O[N+]([O-])=C[C@@]12COCc1cc3c(cc12)OCO3 (stereo not given in full)", "786-0", "inactive"],
  ["Cc1cc(O)c2c(c1)C(O)(c1ccc3c(c1O)C(=O)c1c(O)cc(C)cc1C3(O)C1OC(CO)C(O)C(O)C1O)c1cccc(O)c1C2=O (stereo not given)", "786-0", "inactive"],
  ["CC(CCC(=O)O)(c1cc(Br)c(O)c(Br)c1)c1cc(Br)c(O)c(Br)c1", "786-0", "inactive"],
  ["Clc1cc2nc[nH]c2cc1Cl", "786-0", "inactive"]
]}

Dear colleague, could you share the recorded outcome for c1cc(-c2ccc(-c3ccsc3)s2)cs1 when you have a moment?
inactive

Dear colleague, could you share the recorded outcome for Cc1ccc(O)c(Cc2nc3ccccc3nc2-c2cccc(Cl)c2)c1 when you have a moment?
inactive

Dear colleague, could you share the recorded outcome for C(=C/c1nnnn1-c1ccccc1)/Nc1ccccc1 when you have a moment?
inactive

Dear colleague, could you share the recorded outcome for COc1ccc2c(c1)-c1c(c3ccccc3n1CCN1CCCCC1)CC2 when you have a moment?
inactive

Dear colleague, could you share the recorded outcome for CC1=C2C(=C[C@H]3[C@]4(C)CCCC(C)(C)[C@H]4CC[C@]34O[C@H]24)OC1=O when you have a moment?
inactive

Dear colleague, could you share the recorded outcome for CN1[C@@H]2CCCC[C@H]2N(C)P1(=O)C(O)/C=C/c1ccccc1 (stereo not given in full) when you have a moment?
inactive

Dear colleague, could you share the recorded outcome for CCCCCC/C=C\CCCCCCCCC(=O)c1cccc(OC)c1OC when you have a moment?
inactive

Dear colleague, could you share the recorded outcome for CSc1nc2c(c(=O)[nH]1)N=C(c1ccc([N+](=O)[O-])cc1)CC(c1ccccc1)N2 (stereo not given) when you have a moment?
inactive

Dear colleague, could you share the recorded outcome for CC(=O)OC(=O)O/C=C\CCl when you have a moment?
inactive
